Record form. Attribute: normalized growth. Fill in for each entry.
experiment: chemical genetic growth profiling, strain panel (AID 1159580);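 note: tested at 20 µM; growth read once vehicle control cultures reached saturation at 30 °C; 1 = growth at the plate median or of vehicle wells; lower values mean less growth of the strain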; settings: S. cerevisiae deletion strains, growth OD, locus YLR039C, strain RIC1, active compounds read low
Out of some 5,500 compounds screened, about 2,000 (36%) were called active. Inconclusive results (about 18%) are left out. The list shows a part of the results.
Reply: number alone, nothing else.

**Query** Suppose we examine the molecule COc1ccc(C(=O)C2CCNCC2)cc1 ; what normalized growth value has been reported?
**Result** 1

**Query** May I ask what normalized growth has been recorded for Cc1nn(Cc2n[nH]c(=S)o2)c(C)c1Br ?
**Result** 1.02

**Query** What measured normalized growth goes with C[C@@H](N)[C@@H](O)c1ccccc1 ?
**Result** 0.953

**Query** Dear colleague, I am looking for the recorded normalized growth of the following molecule: C[C@H](N)[C@H](O)c1ccccc1
**Result** 0.993

**Query** Given the molecule Nc1ccncc1 , what is its reported normalized growth?
**Result** 1

**Query** May I ask what normalized growth has been recorded for COc1ccc(C(=O)CC(=O)c2ccc(C(C)(C)C)cc2)cc1 ?
**Result** 0.884

**Query** # normalized growth lookup, item CCCCSP(=O)(SCCCC)SCCCC
**Result** 1.05

**Query** Record request: normalized growth value, item COc1ccc(OCC(N)=O)cc1
**Result** 1.02
